B1: HDV Ribozyme (parent)
chain: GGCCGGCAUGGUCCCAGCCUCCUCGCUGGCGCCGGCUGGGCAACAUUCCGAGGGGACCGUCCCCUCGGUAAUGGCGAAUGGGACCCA

Variants of: B1
test_protocol: self-cleavage, relative activity (ratio to wild type); higher = more cleavage; co-transcriptional
reported_property: self-cleavage
# answer = number (no unit)

These solved cases illustrate the format of a correct answer.
- sequence: "GGCCGCCAUGGUCCCAGCCUCCUCGCUGGCGCCGGCUGGGCAACAUUCCGAGGGGAGCGUCCCCUCGGUAAUGGCGAAUGGGACCCA [G6C C57G]"
  self-cleavage: 0.396
- sequence: "GGCCUGCAUGGUCCCAGCCUCCUCGCUGGCGCCGGCUGGGCAACAUUCCGAGGGUACCGUCCCCUCGGUAAUGGCGAAUGGGACCCA [G5U G55U]"
  self-cleavage: 0.394
- sequence: "GGCCGGCAUGUUCCCAGCCUCCUCGCUGGCGCCGGCUGGGCAACAUUCCGAGGGGUCCGUCCCCUCGGUAAUGGCGAAUGGGACCCA [G11U A56U]"
  self-cleavage: 0.391

The variant identified as GGCCGUCAUGGUCCCAGCCUCCUCGCUGGCGCCGGCUGGGCAACAUUCCGAUGGGACCGUCCCCUCGGUAAUGGCGAAUGGGACCCA [G6U G52U] registered its self-cleavage at 0.397
